# Tested on: human NSCLC epithelial cell lines
# measurement-description: PRISM/GDSC drug response in human NSCLC epithelial cell lines (n=135)
# Assay type: cell-based
# reported-conditions: average in human NSCLC epithelial cell lines (FIG. 18C)
pEC50: −log10 of the molar value.
readout-type: pEC50

INSERT INTO measurements (sample_smiles, target, meas_value) VALUES
  ('C[C@]12O[C@H](C[C@]1(O)CO)n1c3ccccc3c3c4c(c5c6ccccc6n2c5c31)CNC4=O', 'human NSCLC epithelial cell lines', '> 6.00'),
  ('CO[C@@H](C(=O)N1Cc2n[nH]c(NC(=O)c3ccc(N4CCN(C)CC4)cc3)c2C1)c1ccccc1', 'human NSCLC epithelial cell lines', '> 6.00');
